assay-comment: Light stability of printed patches (Weather-Ometer, xenon lamp)
Format: physicochemical
Parameters: key: A: excellent; B: good; C: satisfactory; D: unsatisfactory
study-conditions: E: ILFORD Galerie Classic Gloss Paper (polymer based); 20 megalux hours
parameter-measured: Light Stability (Class) on Recording Sheet E

compound	data-value
O=S(=O)([O-])c1cc(/N=N/c2ccc(Nc3nc(NCCO)nc(Nc4ccc(/N=N/c5cc(S(=O)(=O)[O-])c6cccc(S(=O)(=O)[O-])c6c5)cc4)n3)cc2)cc2c(S(=O)(=O)[O-])cccc12.[Na+].[Na+].[Na+].[Na+] [Dye No. I, reference compound]	B
O=S(=O)([O-])c1cc(/N=N/c2ccc(Nc3nc(NCCCN4CCOCC4)nc(Nc4ccc(/N=N/c5cc(S(=O)(=O)[O-])c6cccc(S(=O)(=O)[O-])c6c5)cc4)n3)cc2)cc2c(S(=O)(=O)[O-])cccc12.[Na+].[Na+].[Na+].[Na+] [Dye No. IV, reference compound]	C
CN(CCS(=O)(=O)[O-])c1nc(Nc2ccc(N=Nc3ccc4cc(S(=O)(=O)[O-])cc(S(=O)(=O)[O-])c4c3)cc2)nc(Nc2ccc(N=Nc3ccc4cc(S(=O)(=O)[O-])cc(S(=O)(=O)[O-])c4c3)cc2)n1.[Na+].[Na+].[Na+].[Na+].[Na+] [Dye No. 17]	B
Cc1cc(Nc2nc(NCCO)nc(Nc3ccc(/N=N/c4cc(S(=O)(=O)[O-])c5cccc(S(=O)(=O)[O-])c5c4)c(C)c3)n2)ccc1/N=N/c1cc(S(=O)(=O)[O-])c2cccc(S(=O)(=O)[O-])c2c1.[Na+].[Na+].[Na+].[Na+] [Dye No. II, Direct Yellow 86, reference compound]	B

In the following, a different compound is considered.
The reported Light Stability (Class) on Recording Sheet E of the compound O=S(=O)([O-])CCNc1nc(Nc2ccc(N=Nc3cc(S(=O)(=O)[O-])c4cccc(S(=O)(=O)[O-])c4c3)cc2)nc(Nc2ccc(N=Nc3cc(S(=O)(=O)[O-])c4cccc(S(=O)(=O)[O-])c4c3)cc2)n1.[Na+].[Na+].[Na+].[Na+].[Na+] [Dye No. 11] was B

---

assay-comment: Light stability of printed patches (Weather-Ometer, xenon lamp)
Format: physicochemical
Parameters: key: A: excellent; B: good; C: satisfactory; D: unsatisfactory
study-conditions: E: ILFORD Galerie Classic Gloss Paper (polymer based); 20 megalux hours
parameter-measured: Light Stability (Class) on Recording Sheet E

O=S(=O)([O-])CCCSc1nc(Nc2ccc(N=Nc3ccc4cc(S(=O)(=O)[O-])cc(S(=O)(=O)[O-])c4c3)cc2)nc(Nc2ccc(N=Nc3ccc4cc(S(=O)(=O)[O-])cc(S(=O)(=O)[O-])c4c3)cc2)n1.[Na+].[Na+].[Na+].[Na+].[Na+] B

---

assay-comment: Light stability of printed patches (Weather-Ometer, xenon lamp)
Assay type: physicochemical
Design: key: A: excellent; B: good; C: satisfactory; D: unsatisfactory
study-conditions: A: HP Printing Paper HPP 1122 (paper); 20 megalux hours, 20° C., 50% relative humidity
parameter-measured: Light Stability (Class) on Recording Sheet A

compound	data-value
O=S(=O)([O-])CCCSc1nc(Nc2ccc(N=Nc3ccc4cc(S(=O)(=O)[O-])cc(S(=O)(=O)[O-])c4c3)cc2)nc(Nc2ccc(N=Nc3ccc4cc(S(=O)(=O)[O-])cc(S(=O)(=O)[O-])c4c3)cc2)n1.[Na+].[Na+].[Na+].[Na+].[Na+] [Dye No. 15]	B
